Test: qHTS assay to identify small molecule that activate the aryl hydrocarbon receptor (AhR) signaling pathway - cell viability counter screen (AID 743086); further: nearly all actives have a fitted effect of over 45% in size
Conditions: HepG2-AhR-luc viability, CellTiter-Fluor, 24 h; series mostly up to 70.3 µM
Results filed as inconclusive are left out. Activity calls are given as the source filed them. The call rests on the fitted dose curve; in most records, active means well fitted cell-killing curve with a large enough effect in the repeat runs; inconclusive means weak or mixed curves, or effect the other way; inactive means flat fitted curve, though single readings scatter.
Respond with a class label; see t = active, f = inactive

[in] Each compound tested received a call. Report the one for `CN(C)c1ccc(N)cc1` .
[out] t

[in] Please let me know the test result on file for `CSC(C)(C)/C=N/O` .
[out] f

[in] Give the logged outcome of this assay for the following compound: `COc1cnc(OC)n2nc(NS(=O)(=O)c3c(OCC(F)F)cccc3C(F)(F)F)nc12`
[out] f

[in] For this compound, state the assay outcome: `CCOP(=O)(Sc1ccccc1)Sc1ccccc1`
[out] f

[in] Could you check what this test reported for `CCOP(=S)(OCC)Oc1cc(C)nc(N(CC)CC)n1` ?
[out] f

[in] Status in this test for `CC(C)N(C(=O)SC/C(Cl)=C/Cl)C(C)C` ?
[out] f

[in] For O=S1OCC2C(CO1)C1(Cl)C(Cl)=C(Cl)C2(Cl)C1(Cl)Cl (stereo not drawn) , what call appears in the results of this test?
[out] f

[in] Look up the recorded call for CC(C)NCC(O)c1ccccc1Cl (stereo not drawn) in this test.
[out] f

[in] So what was the verdict on `O=S(=O)(O)F` in this test?
[out] f

[in] # lookup: test call for `C1=CCC=C1`
[out] f

[in] Entry CCC(OC(C)=O)C(CC(C)NC)(c1ccccc1)c1ccccc1 (stereo not drawn) : call = ?
[out] t

[in] What classification did `CCNS(=O)(=O)C(F)(F)C(F)(F)C(F)(F)C(F)(F)C(F)(F)C(F)(F)C(F)(F)C(F)(F)F` end up with in this test?
[out] f

[in] Could you please tell me the result logged for COC(=O)C(C)N(C(=O)c1ccco1)c1c(C)cccc1C (stereo not drawn) in this assay?
[out] f

----------
Assay: qHTS assay to identify small molecule antagonists of the vitamin D receptor (VDR) signaling pathway - cell viability counter screen (AID 743225); further: nearly all actives have a fitted effect of over 50% in size
Conditions: VDR-bla HEK293T viability, CellTiter-Glo luminescence, 16 h; series mostly up to 61 µM
Results filed as inconclusive are left out. Activity calls are given as the source filed them. Calls follow the shape of the dose curve; as a rule, active = well fitted cell-killing curve with a large enough effect in the repeat runs; inconclusive = weak or mixed curves, or effect the other way; inactive = no such curve, though single readings can be large or run the other way.
Pick one: active, inactive

[in] Could you check what this test reported for `Clc1ccc(C2(Cn3cncn3)OCCO2)c(Cl)c1` ?
[out] inactive

[in] Dear colleague, could you share the recorded outcome for `CCCCN(CCCC)C(=S)S` when you have a moment?
[out] inactive

[in] Per the records of this test, what outcome belongs to `BrCCCBr` ?
[out] inactive

[in] Test call, this molecule: `CNC(C)(C)Cc1ccccc1`
[out] inactive

[in] What classification did `Fc1ccc(C(OCCN2CCN(CCCc3ccccc3)CC2)c2ccc(F)cc2)cc1` end up with in this test?
[out] active

[in] How did this test come out for `O=C(Cl)c1ccccc1F` ?
[out] inactive

[in] Status in this test for `CC(=O)[O-].CC(=O)[O-].O.O.[Zn+2]` ?
[out] inactive

[in] // outcome(item) with item = `c1ccc(Nc2ccc(Nc3ccccc3)cc2)cc1`
[out] inactive

[in] Query: recorded result category for `Nc1c(Cl)c(Cl)c(Cl)c(Cl)c1Cl` in this test
[out] inactive

[in] Query: recorded result category for `O=S(=O)(O)F` in this test
[out] inactive

[in] Please indicate how the test categorized `COP(=S)(OC)Oc1nc(Cl)c(Cl)cc1Cl` .
[out] inactive

[in] For `O=C(N[C@@H]1N=C(c2ccccc2F)c2cccc3c2N(CC3)C1=O)c1cc2ccccc2[nH]1` , what call appears in the results of this test?
[out] inactive

[in] # outcome recorded in this test, key = `CCOP(=O)(OCC)Oc1cc(C)nc(C(C)C)n1`
[out] inactive

[in] Name the outcome recorded for `Cc1cccc(Cc2cnc[nH]2)c1C` in the assay.
[out] inactive

[in] Write down the call the test reported for this molecule. Item: `Cc1nn(-c2cc(NS(C)(=O)=O)c(Cl)cc2Cl)c(=O)n1C(F)F`
[out] inactive

[in] Name the outcome recorded for `CCN(CC)CCN1C(=O)CN=C(c2ccccc2F)c2cc(Cl)ccc21` in the assay.
[out] inactive

[in] So what was the verdict on CC1CN1 (centres undefined) in this test?
[out] inactive

[in] Lab log entry: `CC[C@H](C)[C@H]1O[C@]2(C=C[C@@H]1C)C[C@@H]1C[C@@H](C/C=C(\C)[C@@H](O[C@H]3C[C@H](OC)[C@@H](O[C@H]4C[C@H](OC)[C@@H](NC)[C@H](C)O4)[C@H](C)O3)[C@@H](C)/C=C/C=C3\CO[C@@H]4[C@H](O)C(C)=C[C@@H](C(=O)O1)[C@]34O)O2` — outcome as called in the assay?
[out] active

[in] What is the recorded call for this molecule in the test? CCC(OC(C)=O)C(CC(C)NC)(c1ccccc1)c1ccccc1 (centres undefined)
[out] active

[in] # lookup: test call for `Oc1ccc([C@H]2CNCc3c2ccc(O)c3O)cc1O`
[out] inactive

[in] Tell me the recorded outcome of this test for CC(C)c1c(CN(C)C(C)Cc2ccccc2)n(C)n(-c2ccccc2)c1=O (centres undefined) .
[out] inactive

[in] Can you look up the reported call for `CC(=O)[O][Pb]([c]1ccccc1)([c]1ccccc1)[c]1ccccc1` for me?
[out] active

[in] Just curious, what result did `CCN(CC)Cc1nccn1-c1ccc([N+](=O)[O-])cc1C(=O)c1ccccc1Cl` get here?
[out] inactive

[in] # fetch the recorded call for `Oc1ccc(Cl)c(Cl)c1` here
[out] inactive

----------
Assay: qHTS RealTime-Glo MT Cell Viability Assay in HepG2 cells - 24 hour (AID 1224867); further: nearly all actives have a fitted effect of over 50% in size
Conditions: RealTime-Glo luminescence; series mostly up to 76.8 µM
Records with an inconclusive call do not appear. Calls of active or inactive are those of the source. Calls follow the shape of the dose curve; as a rule, active = well fitted cell-killing curve with a large enough effect in the repeat runs; inconclusive = weak or mixed curves; inactive = flat fitted curve, though single readings scatter.
Output constraint: value belongs to active, inactive

[in] // param item: CC(C)NCC(O)c1ccccc1Cl (stereo not drawn) ; yields the recorded call
[out] inactive

[in] Each compound tested received a call. Report the one for CC1CN1 (stereo not drawn) .
[out] inactive

[in] Status in this test for `Nc1nc(N)c(N)c(N)n1` ?
[out] inactive

[in] What outcome does the record of this test show for `CN(C)CCc1c[nH]c2ccccc12` ?
[out] inactive

[in] Tell me the assay call for `N#CCCl` please.
[out] inactive

[in] Tell me the assay call for `c1ccc2nc(N3CCNCC3)ccc2c1` please.
[out] inactive

[in] Per the records of this test, what outcome belongs to `CC(=O)O.CC(=O)O.CC(=O)O.CC(=O)O.CC(=O)O.CC(=O)O.CC(=O)O.O.O.[Cr].[Cr].[Cr]` ?
[out] inactive

[in] GET /call?item= `Nc1nc(N)nc(Cl)n1` returns the recorded outcome of this test.
[out] inactive

[in] Query: recorded result category for `O=[N+]([O-])c1ccc(CCl)cc1` in this test
[out] inactive

[in] Hi, do you know how `C=CC(=O)[O][Sn]([CH2]CCC)([CH2]CCC)[CH2]CCC` came out in this test?
[out] active

[in] Record lookup: outcome of this test for `C=CCOC(=O)c1ccccc1N` ?
[out] inactive

[in] What call does the record list for ClC1(Cl)C2(Cl)C3(Cl)C4(Cl)C(Cl)(Cl)C5(Cl)C3(Cl)C1(Cl)C5(Cl)C24Cl (stereo not drawn) ?
[out] inactive

[in] Hey, what did the test say about `COC(=O)N(OC)c1ccccc1COc1ccn(-c2ccc(Cl)cc2)n1` ?
[out] inactive

----------
Assay: qHTS assay to identify small molecule antagonists of the estrogen receptor alpha (ER-alpha) signaling pathway using the BG1 cell line - cell viability counter screen (AID 743081);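 further: compound given together with 17beta-estradiol as the ER stimulus; nearly all actives have a fitted effect of over 45% in size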
Conditions: BG1Luc4E2 viability, CellTiter-Fluor, 22 h; series mostly up to 70.3 µM
Inconclusive results are not listed. Calls of active or inactive are those of the source. Calls come from the whole dose curve; as a rule, active = well fitted cell-killing curve with a large enough effect in the repeat runs; inconclusive = weak or mixed curves, or effect the other way; inactive = flat fitted curve, though single readings scatter.
Classes to choose from: label 1 (active), label 0 (inactive)

[in] Just curious, what result did `Fc1ccc(C(OCCN2CCN(CCCc3ccccc3)CC2)c2ccc(F)cc2)cc1` get here?
[out] label 1

[in] Test call for this compound, please: CCn1cc[n+](C)c1 (tested in a mixture with another compound)
[out] label 0

[in] Test call, this compound: `CC(C)Br`
[out] label 0

[in] Check the results log: what was the call for `C#CC1(O)CCCCC1` ?
[out] label 0

[in] Check the results log: what was the call for `Cc1nn(-c2cc(NS(C)(=O)=O)c(Cl)cc2Cl)c(=O)n1C(F)F` ?
[out] label 0

[in] I would be grateful if you could indicate the recorded call for `CSSC` .
[out] label 0

[in] Returns: the outcome recorded for `N#CSCc1ccccc1` in this assay.
[out] label 0

[in] Can you look up the reported call for `CC(=O)[O-].CC(=O)[O-].O.O.[Zn+2]` for me?
[out] label 0

[in] Look up the recorded call for `[O-][Cl+3]([O-])([O-])O` in this test.
[out] label 0

Entry source: PubChem BioAssay (Tox21)
